tested on: Bcl-2; assay: Bcl-2 ELISA in treated A549 cells; type: cell-based, human; conditions: DMSO control 9.83 ± 0.05
measurement kind: Bcl-2 level, Lung (A549)

molecule	Bcl-2 level, Lung (A549)
COc1ccc(Nc2n[nH]c(/N=C/c3ccc(N4CCCCC4)cc3)c2C(=O)Nc2ccccc2)cc1	2.81 ± 0.01 ng/mL
COc1ccc(Nc2n[nH]c(/N=C/c3ccc(N4CCCCC4)cc3)c2C(=O)Nc2ccc(C)cc2)cc1	3.93 ± 0.02 ng/mL
COc1ccc(Nc2n[nH]c(N=Cc3ccc(N4CCCCC4)cc3)c2C(=O)Nc2ccc(Cl)cc2)cc1	3.57 ± 0.02 ng/mL
COc1cccc2c1C(=O)c1c(O)c3c(c(O)c1C2=O)C[C@@](O)(C(=O)CO)C[C@@H]3O[C@H]1C[C@H](N)[C@H](O)[C@H](C)O1 [Doxorubicin, reference compound]	2.55 ± 0.01 ng/mL
Cc1c(C=Nc2[nH]nc(Nc3ccccc3)c2C(=O)Nc2ccccc2)c(=O)n(-c2ccccc2)n1C	2.62 ± 0.01 ng/mL

Form: molecule = COc1ccc(Nc2n[nH]c(N=Cc3c(C)n(C)n(-c4ccccc4)c3=O)c2C(=O)Nc2ccc(Cl)cc2)cc1 ; Bcl-2 level, Lung (A549) = 3.45 ± 0.02 ng/mL

Form: molecule = O=C(Nc1ccccc1)c1c(Nc2ccccc2)n[nH]c1N=Cc1ccc(N2CCCCC2)cc1 ; Bcl-2 level, Lung (A549) = 6.55 ± 0.03 ng/mL

---

test system: human colon cancer (Caco-2) cell line; test: cells; format: cell-based; details: Conc.: 5a 107.63, 5d 101.09, 5e 98.31, 5f 94.51, 7a 101.72, 7f 89.93, DOX 91.99
Exam item: assign criterion met to entries whose Viability %, Caco-2, 4th concentration is below 30% and criterion not met to entries at or above 30%. Note that a value of exactly 30% receives criterion not met.

> print(dat)
                               given.smiles        class.label
1  COc1ccc(Nc2n[nH]c(/N=C/c3ccc(N4CCCCC4)cc3)c2C(=O)Nc2ccccc2)cc1      criterion met
2  COc1ccc(Nc2n[nH]c(N=Cc3c(C)n(C)n(-c4ccccc4)c3=O)c2C(=O)Nc2ccc(Cl)cc2)cc1  criterion not met
3  O=C(Nc1ccccc1)c1c(Nc2ccccc2)n[nH]c1N=Cc1ccc(N2CCCCC2)cc1  criterion not met

Is it true that Viability %, Caco-2, 4th concentration reported for COc1ccc(Nc2n[nH]c(N=Cc3ccc(N4CCCCC4)cc3)c2C(=O)Nc2ccc(Cl)cc2)cc1 is less than 30%?
criterion not met

Is it true that Viability %, Caco-2, 4th concentration reported for Cc1c(C=Nc2[nH]nc(Nc3ccccc3)c2C(=O)Nc2ccccc2)c(=O)n(-c2ccccc2)n1C is less than 30%?
criterion met

Is it true that Viability %, Caco-2, 4th concentration reported for COc1ccc(Nc2n[nH]c(/N=C/c3ccc(N4CCCCC4)cc3)c2C(=O)Nc2ccc(C)cc2)cc1 is less than 30%?
criterion met

---

tested on: human colon cancer (Caco-2) cell line; assay: cells; type: cell-based; settings: Conc.: 5a 215.26, 5d 202.19, 5e 196.61, 5f 189.03, 7a 203.44, 7f 179.85, DOX 183.99
Entries annotated with measured Viability %, Caco-2, 5th concentration
Answer in %, number only, no unit symbol.

Form: compound = O=C(Nc1ccccc1)c1c(Nc2ccccc2)n[nH]c1N=Cc1ccc(N2CCCCC2)cc1 ; Viability %, Caco-2, 5th concentration = 25.84

Cited source: paper PMC11125359
